System: SK-MEL-5 melanoma
Experiment: NCI tumour cell line growth inhibition, 48 h

compound | target-or-test-system | unit-abbrev | qualifier-sign | TGI
CCn1nc(C)c2c1C(=O)NCC(=O)N2 | SK-MEL-5 melanoma | µM | > | 100
c1ccc(C2ONC3=NCCN32)cc1 (stereo not given) | SK-MEL-5 melanoma | µM | = | 49.6
CC1=NNC(=O)C1C1C(=O)NN=C(c2c[nH]c3ccccc23)C1Br (stereo not given) | SK-MEL-5 melanoma | µM | > | 100
Nc1n(CC(=O)c2ccccc2)nc2sc(-c3ccccc3)n[n+]12 | SK-MEL-5 melanoma | µM | = | 22
CC(=O)O[C@H]1CC(C)(C)C(=C=C/C(C)=C/C=C/C=C/C=C(C)/C=C2C=C(/C=C/[C@@]34O[C@]3(C)C[C@@H](O)CC4(C)C)C(=O)O/2)[C@](C)(O)C1 | SK-MEL-5 melanoma | µM | = | 28.9
